# Tested on: NCI/ADR-RES ovarian
# experiment description: NCI tumour cell line growth inhibition, 48 h
value kind: GI50

I have this molecule here, `O=C1Nc2cc(-c3cccc(O)c3)ccc2/C1=C/c1ccc[nH]1` , and I need its recorded GI50. 2.51 µM

I have this molecule here, `COCCOCCOCc1n(Cc2ccc3ccccc3c2)c2ccccc2[n+]1Cc1ccc2ccccc2c1` , and I need its recorded GI50. 15.1 µM

I have this molecule here, N#CC1=C(N)NC(=S)NC1c1ccc(-c2ccc(-c3nc4ccccc4o3)cc2)s1 (stereo not given) , and I need its recorded GI50. 12.1 µM

I have this molecule here, `Cc1cc(-c2nnc(/C=C/c3ccc4c(c3)OCO4)o2)n[nH]1` , and I need its recorded GI50. 7.33 µM

I have this molecule here, `Cc1ccc(C(=O)c2sc3nc4c(cc3c2N)CCCC4)c(C)c1` , and I need its recorded GI50. 0.239 µM

----------
# Tested on: A549 NSCLC
# experiment description: NCI tumour cell line growth inhibition, 48 h
Kindly supply the reported TGI values for the records listed here.

I have this molecule here, `N#Cc1c(C#N)c(-c2ccccc2)n(Cc2ccccc2)c1N` , and I need its recorded TGI. > 100 µM

I have this molecule here, `Cc1coc2c1C(=O)C(=O)c1ccccc1-2` , and I need its recorded TGI. 4.07 µM

I have this molecule here, `CCOC(=O)Nc1nc2ccccc2[nH]1` , and I need its recorded TGI. > 100 µM

I have this molecule here, O=C1C2=Cc3ccccc3OC2(O)Oc2ccccc21 (stereo unspecified) , and I need its recorded TGI. > 100 µM

I have this molecule here, Nc1c(C(=O)Nc2ccccn2)sc2nc3c(cc12)C(O)CCC3 (stereo unspecified) , and I need its recorded TGI. > 50 µM

I have this molecule here, `O=C1CNC(=O)/C(=C/c2c[nH]c3ccccc23)N1` , and I need its recorded TGI. > 100 µM

I have this molecule here, `C/C(=N\NC(N)=S)c1ccc(C)c(C)c1` , and I need its recorded TGI. > 100 µM

I have this molecule here, `CNCCCNC(=S)Cn1cc(C)c(=O)[nH]c1=O` , and I need its recorded TGI. > 51.3 µM

I have this molecule here, CCCCCCCCOCC(O)CO (stereo unspecified) , and I need its recorded TGI. > 100 µM

I have this molecule here, `COc1ccc(/C=C2\C[C@H]3[C@@H]4CC=C5C[C@@H](OC(C)=O)CC[C@]5(C)[C@H]4CC[C@]3(C)\C2=N\O)cc1OC` , and I need its recorded TGI. > 100 µM

I have this molecule here, CC(=O)OC1OC(c2ccoc2)C[C@@]12C1CCC3O[C@]3(C)[C@]1(C)[C@H](OC(C)=O)[C@H](OC(C)=O)[C@H]2C (stereo partly specified) , and I need its recorded TGI. > 37.5 µM

----------
# System: SNB-75 CNS
# experiment description: NCI tumour cell line growth inhibition, 48 h
value kind: TGI

I have this compound here, `CCOC(=O)C(Cc1c[nH]c2cc(N(CCO)CCO)ccc12)(NC(C)=O)C(=O)OCC` , and I need its recorded TGI. > 1000 µM

I have this compound here, `O=[P+](O)c1ccccn1` , and I need its recorded TGI. > 100 µM

I have this compound here, COc1cc2c(cc1OC)C1c3ccccc3CCN1CCC2 (stereo not drawn) , and I need its recorded TGI. > 100 µM

I have this compound here, `c1csc(-c2nccc3c2[nH]c2ccccc23)c1` , and I need its recorded TGI. 42.8 µM

I have this compound here, `NC(=S)N=Nc1c(O)[nH]c2c(Cl)cc(Cl)cc12` , and I need its recorded TGI. 42.4 µM

I have this compound here, `CNCCCNC(=S)Cn1cc(C)c(=O)[nH]c1=O` , and I need its recorded TGI. > 100 µM

I have this compound here, `COc1ccc2c3c([nH]c(=O)c2c1C(=O)O)-c1ccccc1CC3` , and I need its recorded TGI. > 100 µM

I have this compound here, `COc1ccc(/C(C)=N/NC(=O)CSc2nc3ccccc3c(=O)n2CCc2ccc(S(N)(=O)=O)cc2)cc1` , and I need its recorded TGI. 4.26 µM

I have this compound here, `Cc1ccc(S(=O)(=O)N2CCCSCCSCCCN(S(=O)(=O)c3ccc(C)cc3)CC2)cc1` , and I need its recorded TGI. > 100 µM

I have this compound here, `N#C/C(c1nc2ccccc2[nH]1)=c1\s/c(=C(/N)O)c(=N)n1-c1ccccc1` , and I need its recorded TGI. > 100 µM

I have this compound here, O=C1C(=C2CCCC2)CCC1CN1CCCCC1 (stereo not drawn) , and I need its recorded TGI. 15.5 µM

I have this compound here, `c1ccc2c(c1)nn1c3ccc4nonc4c3[n-][n+]21` , and I need its recorded TGI. > 100 µM

I have this compound here, `O=C(O)Cc1ccc(Nc2nc3ccccc3nc2C(=O)O)cc1` , and I need its recorded TGI. > 100 µM

I have this compound here, CC1(C)CCCC2(C)C3C(O)CC2(C)C(O)C31 (stereo not drawn) , and I need its recorded TGI. > 100 µM

I have this compound here, C=C1C(=O)O[C@H]2C1C[C@@H](O)/C(C)=C/CC[C@@]1(C)O[C@H]21 (stereo partly drawn) , and I need its recorded TGI. 34.7 µM

I have this compound here, `OB(O)c1ccccc1C#Cc1ccccc1B(O)O` , and I need its recorded TGI. > 100 µM

I have this compound here, `N#CCCN(CCC#N)c1ccc(C(N=Nc2ccc(Cl)cc2)=Nc2ccccc2)cc1` , and I need its recorded TGI. 31.8 µM

I have this compound here, `O=C(Cc1nc2sc3c(c2c(=O)[nH]1)CCCC3)Nc1ccccc1` , and I need its recorded TGI. 53.6 µM

I have this compound here, `NCCCOc1cc2ccccc2cc1C(=O)Nc1ccc(Cl)cc1OC(=O)c1cc2ccccc2cc1OCCCN` , and I need its recorded TGI. 0.859 µM

I have this compound here, `O=C(O)[C@@H]1OCCOCCO[C@@H](C(=O)O)[C@H](C(=O)O)OCCOCCO[C@H]1C(=O)O` , and I need its recorded TGI. > 100 µM

I have this compound here, `C[P+](C)(C)C` , and I need its recorded TGI. > 100 µM

I have this compound here, `c1ccc2c(c1)OCCc1cn[nH]c1-2` , and I need its recorded TGI. > 92.5 µM

I have this compound here, O=c1[nH]c2cc([N+](=O)[O-])ccc2nc1/C(=N/Nc1ccccc1)C(O)c1ccco1 (stereo not drawn) , and I need its recorded TGI. > 100 µM
